Tested on: MDA-MB-453
Assay: normalised viability (% of control), CellTiter-Blue; higher = more viable cells (about 100 = DMSO control)
Conditions: 10000 nM; incubation time: 72 h
Would you mind telling me the reported normalised viability of each entry?
Report the figure in % without appending any unit label.

// normalised viability value for CC[C@]1(O)C[C@H]2CN(CCc3c([nH]c4ccccc34)[C@@](C(=O)OC)(c3cc4c(cc3OC)N(C=O)[C@H]3[C@@](O)(C(=O)OC)[C@H](OC(C)=O)[C@]5(CC)C=CCN6CC[C@]43[C@@H]65)C2)C1 : 41.6

// normalised viability value for CC(C)(C#N)c1cc(Cn2cncn2)cc(C(C)(C)C#N)c1 : 79.8

// normalised viability value for O=C(O)CCCc1ccc(N(CCCl)CCCl)cc1 : 65

// normalised viability value for CNNCc1ccc(C(=O)NC(C)C)cc1 : 110

// normalised viability value for CN(C)CCN1C(=O)c2cccc3cc(N)cc(c23)C1=O [Amonafide] : 20.4

====

Tested on: HCC1143
Assay: normalised response (% of control), CellTiter-Glo; higher = more viable cells (100 = DMSO, 0 = benzethonium chloride kill control)
Details: incubation time: 72 h
RECORDED_ENDPOINT: normalised response
# include the unit after the value

Reported HCC1143 normalised response for item O=C(O)CCCc1ccc(N(CCCl)CCCl)cc1 [Chlorambucil] (1 nM) was 102%

Reported HCC1143 normalised response for item CN(C)C[C@@H]1CCn2cc(c3ccccc32)C2=C(C(=O)NC2=O)c2cn(c3ccccc23)CCO1 [Ruboxistaurin] (1000 nM) was 90%

Reported HCC1143 normalised response for item C/C(=C\c1csc(C)n1)[C@@H]1C[C@@H]2O[C@]2(C)CCC[C@H](C)[C@H](O)[C@@H](C)C(=O)C(C)(C)[C@@H](O)CC(=O)O1 [Patupilone] (0.1 nM) was 97.6%

Reported HCC1143 normalised response for item CC[C@]1(O)C[C@H]2CN(CCc3c([nH]c4ccccc34)[C@@](C(=O)OC)(c3cc4c(cc3OC)N(C=O)[C@H]3[C@@](O)(C(=O)OC)[C@H](OC(C)=O)[C@]5(CC)C=CCN6CC[C@]43[C@@H]65)C2)C1 [Vincristine] (1 nM) was 104%

Reported HCC1143 normalised response for item c1ccc([C@H]2CN3CCSC3=N2)cc1 [Levamisole] (1000 nM) was 109%

Reported HCC1143 normalised response for item CC[C@]1(O)C[C@H]2CN(CCc3c([nH]c4ccccc34)[C@@](C(=O)OC)(c3cc4c(cc3OC)N(C=O)[C@H]3[C@@](O)(C(=O)OC)[C@H](OC(C)=O)[C@]5(CC)C=CCN6CC[C@]43[C@@H]65)C2)C1 [Vincristine] (0.1 nM) was 103%

Reported HCC1143 normalised response for item CCCCCCCCc1ccc(CCC(N)(CO)CO)cc1 [Fingolimod] (10 nM) was 99.5%

Reported HCC1143 normalised response for item Nc1nc(OCc2cc(Br)cs2)c2[nH]cnc2n1 [Lomeguatrib] (1000 nM) was 101%

Reported HCC1143 normalised response for item Cn1cncc1[C@@](N)(c1ccc(Cl)cc1)c1ccc2c(c1)c(-c1cccc(Cl)c1)cc(=O)n2C [Tipifarnib] (1 nM) was 94.6%

Reported HCC1143 normalised response for item Cn1c(=O)n(-c2ccc(C(C)(C)C#N)cc2)c2c3cc(-c4cnc5ccccc5c4)ccc3ncc21 [Dactolisib] (100 nM) was 45.5%
